Numbers sourced from patent US8173829B2.

- Experimental target: human recombinant β1 receptors (Homo sapiens, UniProt P08588)
- Sequence (P08588 whole entry): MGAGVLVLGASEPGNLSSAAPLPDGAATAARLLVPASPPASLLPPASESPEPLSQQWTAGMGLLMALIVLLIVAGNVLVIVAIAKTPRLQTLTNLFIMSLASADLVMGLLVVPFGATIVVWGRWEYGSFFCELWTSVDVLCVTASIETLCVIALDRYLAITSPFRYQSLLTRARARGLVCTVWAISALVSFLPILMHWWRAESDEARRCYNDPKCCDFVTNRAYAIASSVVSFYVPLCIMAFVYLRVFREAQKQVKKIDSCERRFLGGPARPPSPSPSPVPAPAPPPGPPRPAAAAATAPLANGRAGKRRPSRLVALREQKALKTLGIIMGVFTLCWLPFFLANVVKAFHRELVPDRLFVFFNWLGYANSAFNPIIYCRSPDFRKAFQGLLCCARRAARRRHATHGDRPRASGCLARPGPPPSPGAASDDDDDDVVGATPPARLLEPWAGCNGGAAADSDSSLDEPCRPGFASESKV
- Assay info: β1 radioligand binding assay
- Run conditions: β1 receptor, displacement of [125I]-cyanopidolol, CHO cells
Reported endpoint: Ki

Sure, the documented Ki for COC(=O)Nc1cc([C@H](O)CN[C@H](C)Cc2ccc(O)cc2)ccc1O is > 10 µM

###

- Experimental target: adrenergic β2 receptors (Cavia porcellus, UniProt Q8K4Z4)
- Sequence (Q8K4Z4 whole entry): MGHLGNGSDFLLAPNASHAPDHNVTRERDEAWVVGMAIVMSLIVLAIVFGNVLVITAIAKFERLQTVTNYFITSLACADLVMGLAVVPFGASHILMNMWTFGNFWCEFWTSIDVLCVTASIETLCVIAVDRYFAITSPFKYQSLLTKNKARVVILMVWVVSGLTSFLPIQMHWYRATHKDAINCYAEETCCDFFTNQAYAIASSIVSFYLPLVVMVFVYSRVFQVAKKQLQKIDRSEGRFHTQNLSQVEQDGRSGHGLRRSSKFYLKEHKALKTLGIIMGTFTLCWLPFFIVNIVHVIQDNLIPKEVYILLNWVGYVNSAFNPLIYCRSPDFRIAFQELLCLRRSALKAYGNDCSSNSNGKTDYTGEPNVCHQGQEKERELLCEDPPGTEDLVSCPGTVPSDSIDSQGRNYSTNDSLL
- Assay info: β2 adrenergic activity (functional), relaxation of spontaneous tone of isolated trachea
- Run conditions: β2, isolated trachea, guinea pig
Reported endpoint: pEC50
Field pEC50 (float): negative decimal logarithm of the concentration in molar.

Sure, the documented pEC50 for COC(=O)Nc1cc([C@H](O)CN[C@H](C)Cc2ccc(O)cc2)ccc1O is 7.21
